Parameter: self-cleavage. Scope: all listed entries.
B1: LINE1-mini (parent)
chain: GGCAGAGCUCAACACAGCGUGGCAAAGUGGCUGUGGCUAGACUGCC

variants of: B1; experiment: self-cleavage, relative activity (ratio to wild type); higher = more cleavage; in vitro, sequencing; the parent is a self-cleaving ribozyme
Value Type: self-cleavage

variant_id="G19A U32G" observed_result=0.1
variant_id="A26U C42G" observed_result=0.1
variant_id="C42U G44U" observed_result=0.1
